assay_system: XIAP BIR3 (Homo sapiens, UniProt P98170)
Construct: His-BIR3 (241-356, XIAP)
Sequence (P98170 241-356): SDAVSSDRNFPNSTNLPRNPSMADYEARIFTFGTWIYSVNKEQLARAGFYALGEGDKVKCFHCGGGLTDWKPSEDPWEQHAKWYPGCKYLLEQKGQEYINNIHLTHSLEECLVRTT
procedure_details: XIAP-BIR3/SMAC Homogeneous Time Resolved Fluorescence (HTRF) Assay
Assay type: binding
Labelling field: enter Satisfied if recorded IC50 is less than 10 nM. Enter Not satisfied if it equals or exceeds that cut-off.

1) CN[C@@H](C)C(=O)N[C@H](C(=O)N1Cc2cc(NC(=O)[C@H]3C[C@@H](C(=O)N[C@@H]4CCCc5ccccc54)N(C(=O)[C@@H](NC(=O)[C@H](C)NC)C(C)(C)C)C3)ccc2C[C@H]1C(=O)N[C@@H]1CCCc2ccccc21)C(C)(C)C ... Satisfied

### Prompt For this compound, is IC50 lower than 10 nM? CN[C@@H](C)C(=O)N[C@H](C(=O)N1Cc2cc(N[C@H]3C[C@@H](C(=O)N[C@@H]4CCCc5ccccc54)N(C(=O)[C@@H](NC(=O)[C@H](C)NC)C(C)(C)C)C3)ccc2C[C@H]1C(=O)N[C@@H]1CCCc2ccccc21)C(C)(C)C
### Response Not satisfied

### Prompt Try the compound CN[C@@H](C)C(=O)N[C@H](C(=O)N1C[C@@H](c2ccc3c(c2)CN(C(=O)[C@@H](NC(=O)[C@H](C)NC)C(C)(C)C)[C@H](C(=O)N[C@@H]2CCCc4ccccc42)C3)C[C@H]1C(=O)N[C@@H](Cc1ccccc1)C(=O)OC)C(C)(C)C
### Response Not satisfied

### Prompt Try the compound CN[C@@H](C)C(=O)N[C@H](C(=O)N1C[C@@H](c2ccc3c(c2)CN(C(=O)[C@@H](NC(=O)[C@H](C)NC)C(C)(C)C)[C@H](C(=O)N[C@@H]2CCCc4ccccc42)C3)C[C@H]1C(=O)N[C@@H](Cc1ccccc1)C(=O)NS(=O)(=O)c1ccccc1)C(C)(C)C
### Response Satisfied

### Prompt Try the compound CN[C@@H](C)C(=O)N[C@H](C(=O)N1Cc2cc([C@H]3C[C@@H](C(=O)N[C@@H](Cc4ccccc4)C(=O)OC)N(C(=O)[C@@H](NC(=O)[C@H](C)NC)C(C)(C)C)C3)ccc2C[C@H]1C(=O)N[C@@H](Cc1ccccc1)C(=O)OC)C(C)(C)C
### Response Not satisfied

### Prompt Try the compound CN[C@@H](C)C(=O)N[C@H](C(=O)N1C[C@@H](c2ccc3c(c2)CN(C(=O)[C@@H](NC(=O)[C@H](C)NC)C(C)(C)C)[C@H](C(=O)N[C@@H]2CCCc4ccccc42)C3)C[C@H]1C(=O)N[C@@H](Cc1ccccc1)C(=O)NC(C)C)C(C)(C)C
### Response Satisfied

### Prompt Try the compound CN[C@@H](C)C(=O)N[C@H](C(=O)N1Cc2cc(C(=O)N[C@H]3C[C@@H](C(=O)N[C@@H]4CCCc5ccccc54)N(C(=O)[C@@H](NC(=O)[C@H](C)NC)C(C)(C)C)C3)ccc2C[C@H]1C(=O)N[C@@H]1CCCc2ccccc21)C(C)(C)C
### Response Not satisfied

### Prompt Try the compound CN[C@@H](C)C(=O)N[C@H](C(=O)N1Cc2cc([C@H]3C[C@@H](C(=O)N[C@@H]4CCCc5ccccc54)N(C(=O)[C@@H](NC(=O)[C@H](C)NC)C(C)(C)C)C3)ccc2C[C@H]1C(=O)N[C@@H]1CCCc2ccccc21)C(C)(C)C
### Response Satisfied
